Origin of values: ChEMBL document CHEMBL4041467

Overview of reported MIC across a group of compounds:
- System: Staphylococcus aureus
- test.details: Antibacterial activity against inducibly macrolide/lincosamide/streptogramin B-resistant Staphylococcus aureus by agar microdilution method
- Type: functional
Number in µg/mL, nothing else.

Example entries and their recorded answers appear below.
[
  {
    "compound": "CC[C@H]1OC(=O)[C@H](C)C(=O)[C@H](C)[C@@H](O[C@@H]2O[C@H](C)C[C@H](N(C)C)[C@H]2O)[C@](C)(OCC=Cc2cnc3ccccc3c2)C[C@@H](C)C(=O)[C@H](C)[C@H]2NC(=O)O[C@@]21C",
    "recorded.metric": "MIC",
    "uom": "µg/mL",
    "value": 0.25
  },
  {
    "compound": "C=CCO[C@]1(C)C[C@@H](C)NC(=O)[C@H](C)[C@@H](O)[C@](C)(O)[C@@H](CC)OC(=O)[C@H](C)[C@@H](OC(=O)CCNC(C)C(=O)Nc2ccccc2)[C@H](C)[C@H]1O[C@@H]1O[C@H](C)C[C@H](N(C)C)[C@H]1O (some centres undefined)",
    "recorded.metric": "MIC",
    "uom": "µg/mL",
    "value": 4
  },
  {
    "compound": "CC[C@H]1OC(=O)[C@H](C)[C@@H](OC(=O)CCNCCNc2cc3c(=O)c(C(=O)O)cn(C4CC4)c3cc2Cl)[C@H](C)[C@@H](O[C@@H]2O[C@H](C)C[C@H](N(C)C)[C@H]2O)[C@](C)(OC/C=C/c2cnc3ccccc3c2)C[C@@H](C)NC(=O)[C@H](C)[C@@H](O)[C@]1(C)O",
    "recorded.metric": "MIC",
    "uom": "µg/mL",
    "value": 0.25
  },
  {
    "compound": "C=CCO[C@]1(C)C[C@@H](C)NC(=O)[C@H](C)[C@@H](O)[C@](C)(O)[C@@H](CC)OC(=O)[C@H](C)[C@@H](OC(=O)CCN2CCN(c3ccc(F)cc3)CC2)[C@H](C)[C@H]1O[C@@H]1O[C@H](C)C[C@H](N(C)C)[C@H]1O",
    "recorded.metric": "MIC",
    "uom": "µg/mL",
    "value": 4
  },
  {
    "compound": "C=CCO[C@]1(C)C[C@@H](C)NC(=O)[C@H](C)[C@@H](O)[C@](C)(O)[C@@H](CC)OC(=O)[C@H](C)[C@@H](OC(=O)CCN(C)CCc2ccccc2)[C@H](C)[C@H]1O[C@@H]1O[C@H](C)C[C@H](N(C)C)[C@H]1O",
    "recorded.metric": "MIC",
    "uom": "µg/mL",
    "value": 4
  },
  {
    "compound": "C=CCO[C@]1(C)C[C@@H](C)NC(=O)[C@H](C)[C@@H](O)[C@](C)(O)[C@@H](CC)OC(=O)[C@H](C)[C@@H](OC(=O)CCNCCCCc2ccccc2)[C@H](C)[C@H]1O[C@@H]1O[C@H](C)C[C@H](N(C)C)[C@H]1O",
    "recorded.metric": "MIC",
    "uom": "µg/mL",
    "value": 8
  }
]

Now consider a different compound.
Exercise: Look up and report measured MIC for this entry: "C=CCO[C@]1(C)C[C@@H](C)NC(=O)[C@H](C)[C@@H](O)[C@](C)(O)[C@@H](CC)OC(=O)[C@H](C)[C@@H](OC(=O)CCN2CCN(c3cc4c(cc3F)c(=O)c(C(=O)OC)cn4C3CC3)CC2)[C@H](C)[C@H]1O[C@@H]1O[C@H](C)C[C@H](N(C)C)[C@H]1O"
Key: 4

* * *

Overview of reported clearance across a group of molecules:
- test.details: Clearance in Han Wistar rat at 10 mg/kg, iv by LC-MS/MS analysis
- Format: ADME, organism-based
- experimental.setup: in vivo
Number in mL/min/kg, nothing else.

[
  {
    "substance.smiles": "CC[C@H]1OC(=O)[C@H](C)C(=O)[C@H](C)[C@@H](O[C@@H]2O[C@H](C)C[C@H](N(C)C)[C@H]2O)[C@](C)(OC)C[C@@H](C)C(=O)[C@H](C)[C@H]2N(CCCCn3cnc(-c4cccnc4)c3)C(=O)O[C@]12C",
    "clearance (mL/min/kg)": 42.5
  }
]

Exercise: Look up and report measured clearance for this entry: "C=CCO[C@]1(C)C[C@@H](C)NC(=O)[C@H](C)[C@@H](O)[C@](C)(O)[C@@H](CC)OC(=O)[C@H](C)[C@@H](OC(=O)CCNCCNc2cc3c(=O)c(C(=O)O)cn(C4CC4)c3cc2Cl)[C@H](C)[C@H]1O[C@@H]1O[C@H](C)C[C@H](N(C)C)[C@H]1O"
Key: 44.7

Exercise: Look up and report measured clearance for this entry: "CC[C@H]1OC(=O)[C@H](C)[C@@H](OC(=O)CCNCCNc2cc3c(=O)c(C(=O)O)cn(C4CC4)c3cc2Cl)[C@H](C)[C@@H](O[C@@H]2O[C@H](C)C[C@H](N(C)C)[C@H]2O)[C@](C)(OC/C=C/c2cnc3ccccc3c2)C[C@@H](C)NC(=O)[C@H](C)[C@@H](O)[C@]1(C)O"
Key: 20.3

* * *

- test.details: Fraction unbound in Han Wistar rat plasma at 10 mg/kg, iv by LC-MS/MS analysis
- Assay type: ADME, organism-based
Overview of reported fraction unbound across a group of compounds:
Please reply with the value in numeric form only.

Exercise: Look up and report measured fraction unbound for this entry: "C=CCO[C@]1(C)C[C@@H](C)NC(=O)[C@H](C)[C@@H](O)[C@](C)(O)[C@@H](CC)OC(=O)[C@H](C)[C@@H](OC(=O)CCNCCNc2cc3c(=O)c(C(=O)O)cn(C4CC4)c3cc2Cl)[C@H](C)[C@H]1O[C@@H]1O[C@H](C)C[C@H](N(C)C)[C@H]1O"
Key: 0.63

Exercise: Look up and report measured fraction unbound for this entry: "CC[C@H]1OC(=O)[C@H](C)[C@@H](OC(=O)CCNCCNc2cc3c(=O)c(C(=O)O)cn(C4CC4)c3cc2Cl)[C@H](C)[C@@H](O[C@@H]2O[C@H](C)C[C@H](N(C)C)[C@H]2O)[C@](C)(OC/C=C/c2cnc3ccccc3c2)C[C@@H](C)NC(=O)[C@H](C)[C@@H](O)[C@]1(C)O"
Key: 0.42

Exercise: Look up and report measured fraction unbound for this entry: "CC[C@H]1OC(=O)[C@H](C)C(=O)[C@H](C)[C@@H](O[C@@H]2O[C@H](C)C[C@H](N(C)C)[C@H]2O)[C@](C)(OC)C[C@@H](C)C(=O)[C@H](C)[C@H]2N(CCCCn3cnc(-c4cccnc4)c3)C(=O)O[C@]12C"
Key: 0.56

* * *

Overview of reported MIC across a group of compounds:
- System: Streptococcus pyogenes
- test.details: Antibacterial activity against Mef-mediated macrolide efflux resistant Streptococcus pyogenes by agar microdilution method
- Format: functional
Number in µg/mL, nothing else.

Example entries and their recorded answers appear below.
[
  {
    "compound": "CC[C@H]1OC(=O)[C@H](C)[C@@H](OC(=O)CCNCCNc2cc3c(=O)c(C(=O)O)cn(C4CC4)c3cc2Cl)[C@H](C)[C@@H](O[C@@H]2O[C@H](C)C[C@H](N(C)C)[C@H]2O)[C@](C)(OC/C=C/c2ccnc3ccccc23)C[C@@H](C)NC(=O)[C@H](C)[C@@H](O)[C@]1(C)O",
    "measurement.target": "Streptococcus pyogenes",
    "MIC (µg/mL)": 4
  },
  {
    "compound": "C=CCO[C@]1(C)C[C@@H](C)NC(=O)[C@H](C)[C@@H](O)[C@](C)(O)[C@@H](CC)OC(=O)[C@H](C)[C@@H](OC(=O)CCNC(C)C(=O)Nc2ccc3ncccc3c2)[C@H](C)[C@H]1O[C@@H]1O[C@H](C)C[C@H](N(C)C)[C@H]1O (stereo partly drawn)",
    "measurement.target": "Streptococcus pyogenes",
    "MIC (µg/mL)": 0.25
  },
  {
    "compound": "C=CCO[C@]1(C)C[C@@H](C)NC(=O)[C@H](C)[C@@H](O)[C@](C)(O)[C@@H](CC)OC(=O)[C@H](C)[C@@H](OC(=O)CCNC(C)Cc2ccc(OC)cc2)[C@H](C)[C@H]1O[C@@H]1O[C@H](C)C[C@H](N(C)C)[C@H]1O (stereo partly drawn)",
    "measurement.target": "Streptococcus pyogenes",
    "MIC (µg/mL)": 4
  },
  {
    "compound": "C=CCO[C@]1(C)C[C@@H](C)NC(=O)[C@H](C)[C@@H](O)[C@](C)(O)[C@@H](CC)OC(=O)[C@H](C)[C@@H](OC(=O)CCN2CCN(c3cc4c(cc3F)c(=O)c(C(=O)OC)cn4C3CC3)CC2)[C@H](C)[C@H]1O[C@@H]1O[C@H](C)C[C@H](N(C)C)[C@H]1O",
    "measurement.target": "Streptococcus pyogenes",
    "MIC (µg/mL)": 8
  },
  {
    "compound": "CC[C@H]1OC(=O)[C@H](C)[C@@H](O[C@H]2C[C@@](C)(OC)[C@@H](O)[C@H](C)O2)[C@H](C)[C@@H](O[C@@H]2O[C@H](C)C[C@H](N(C)C)[C@H]2O)[C@](C)(O)C[C@@H](C)CN(C)[C@H](C)[C@@H](O)[C@]1(C)O",
    "measurement.target": "Streptococcus pyogenes",
    "MIC (µg/mL)": 1
  }
]

Now consider a different compound.
Exercise: Look up and report measured MIC for this entry: "CC[C@H]1OC(=O)[C@H](C)[C@@H](OC(=O)CCNCCNc2cc3c(=O)c(C(=O)O)cn(C4CC4)c3cc2Cl)[C@H](C)[C@@H](O[C@@H]2O[C@H](C)C[C@H](N(C)C)[C@H]2O)[C@](C)(OC/C=C/c2ccc3ncccc3c2)C[C@@H](C)NC(=O)[C@H](C)[C@@H](O)[C@]1(C)O"
Key: 0.25
